Please go through the items and note down their IC50.
# Measured target: KRAS G12C (Homo sapiens, UniProt P01116, G12C)
# Sequence (P01116 1-188 isoform P01116-2 G12C): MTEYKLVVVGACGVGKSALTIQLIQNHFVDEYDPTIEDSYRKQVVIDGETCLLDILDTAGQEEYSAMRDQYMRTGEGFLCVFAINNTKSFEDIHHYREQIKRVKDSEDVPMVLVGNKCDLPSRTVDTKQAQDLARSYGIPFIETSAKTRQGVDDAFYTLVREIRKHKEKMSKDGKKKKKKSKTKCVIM
# Test name: KRAS G12C NEA-HTRF experiment (SOS1-catalyzed displacement of GDP by GTP)
Answers are plain numbers, in nM.

Examples with their reported IC50 follow.
1) C=CC(=O)N1CCN2C(=O)c3c(N4C[C@H](N(C)CCOC)CC4(C)C)nc(-c4c(O)cccc4F)c(Cl)c3OC[C@H]2C1 (single isomer, unassigned) [Z296-2]: 39
2) C=CC(=O)N1CCN2C(=O)c3c(N4C[C@H](N(C)C)CC4(C)C)nc(-c4ccccc4)c(Cl)c3OC[C@H]2C1 (single isomer, unassigned) [Z655-2]: 128
3) C=CC(=O)N1CCN2C(=O)c3c(N4CCN(C(C)=O)C(C)(C)C4)nc(-c4c(O)cccc4F)c(Cl)c3OC[C@H]2C1 [Z315]: 33
4) C=CC(=O)N1CCN2C(=O)c3c(N4CC(C#N)CC4(C)C)nc(-c4c(O)cccc4F)c(Cl)c3OC[C@H]2C1 (stereo partly drawn) [Z275]: 21
5) C=CC(=O)N1CCN2C(=O)c3c(N[C@H](C)c4ccccc4)nc(-c4c(O)cccc4F)c(Cl)c3OC[C@H]2C1 [Z28]: 113

# input Record C=CC(=O)N1CCN2C(=O)c3c(N4C[C@H](N(C)CCOC)CC4(C)C)nc(-c4ccccc4F)c(Cl)c3OC[C@H]2C1 (single isomer, unassigned) [Z406-1] : what is its IC50 with KRAS G12C (Homo sapiens, UniProt P01116, G12C)?
# output 31

###

# Measured target: KRAS G12C (Homo sapiens, UniProt P01116, G12C)
# Test name: KRAS G12C NEA-HTRF experiment (SOS1-catalyzed displacement of GDP by GTP)
# Text: […]
Exercise: for every item that follows, state its recorded pIC50.
One number for each entry, as −log10 of the molar value.

# count of solved cases: 3
1. C=CC(=O)N1CCN2C(=O)c3c(N4C[C@@H](OC)CC4(C)C)nc(-c4c(O)cccc4F)c(Cl)c3OC[C@H]2C1 (single isomer, unassigned) [Z244-1]: 7.59
2. C=CC(=O)N1CCN2C(=O)c3c(OC4CCN(C)CC4)nc(-c4c(O)cccc4F)c(Cl)c3OC[C@H]2C1 [Z61]: 6.75
3. C=CC(=O)N1CCN2C(=O)c3c(N4C[C@@H](N(C)C)CC4(C)C)nc(-c4c(F)ccc(F)c4O)c(Cl)c3OC[C@H]2C1 [Z475-1]: 7.65

Hi, could you look up pIC50 for each item in my list?
1. C=CC(=O)N1CCN2C(=O)c3c(N4CC[C@H](N(C)C)C4(C)C)nc(-c4c(O)cccc4F)c(Cl)c3OC[C@H]2C1 (single isomer, unassigned) [Z360-2]
2. C=CC(=O)N1CCN2C(=O)c3c(N4CC(C(=O)O)CC4(C)C)nc(-c4c(O)cccc4F)c(Cl)c3OC[C@H]2C1 (stereo partly shown) [Z458]
3. C=CC(=O)N1CCN2C(=O)c3c(N4CCCC4(C)C)nc(-c4c(O)cccc4F)c(Cl)c3OC[C@H]2C1 [Z22]

# output
1: 7.43; 2: 7.86; 3: 7.70

// for each compound in input: emit pIC50
1. C=CC(=O)N1CCN2C(=O)c3c(N4C[C@H](N(C)CCF)CC4(C)C)nc(-c4ccccc4F)c(Cl)c3OC[C@H]2C1 (single isomer, unassigned) [Z660-2]
2. C=CC(=O)N1CCN2C(=O)c3c(N4C[C@@H](OC)C[C@@H]4C)nc(-c4c(O)cccc4F)c(Cl)c3OC[C@H]2C1 [Z260a]
3. C=CC(=O)N1CCN2C(=O)c3c(N4CC(N5CCOCC5)CC4(C)C)nc(-c4ccccc4F)c(Cl)c3OC[C@H]2C1 (single isomer, unassigned) [Z468-2]
4. C=CC(=O)N1CCN2C(=O)c3c(N4CC(N(C)C5COC5)CC4(C)C)nc(-c4c(O)cccc4F)c(Cl)c3OC[C@H]2C1 (single isomer, unassigned) [Z331-1]
5. C=CC(=O)N1CCN2C(=O)c3c(N4CC[C@H](N(C)C)C4(C)C)nc(-c4ccccc4F)c(Cl)c3OC[C@H]2C1 [Z502-2]

# output
[7.30, 7.57, 7.33, 8.30, 6.80]

Where do the numbers come from? From patent US20230203060A1.
